# Test system: Es-2
# experiment: Primary qHTS to identify gynecologic anti-cancer compounds using libraries of approved drugs and bioactive compounds (AID 1345084); further: on the % scale 0 is the no-effect control and ±100 the full control effect; nearly all actives have a fitted effect of over 55% in size
# measurement.conditions: Gynecologic cancer cell panel viability, ATPlite luminescence, 48 h; series mostly up to 57.5 µM
Records with an inconclusive call do not appear. Active and inactive are the calls of the source. The call rests on the fitted dose curve; in most records, active means well fitted cell-killing curve with a large enough effect; inconclusive means small, poorly fitted or top-dose-only effect, or effect the other way; inactive means flat fitted curve, though single readings scatter. Where a SMILES comes first, the peptide text is derived from it. [ ]: non-standard residue; d: D form. Ala(indol-2-yl) = N[C@@H](Cc1cc2ccccc2[nH]1)C(=O)O; Aib = CC(C)(N)C(=O)O
property.measured: activity change, negative = cytotoxicity

# example entries with known answers
compound	property.measured	measured
Nc1ncnc2c1ncn2[C@@H]1O[C@@H]2COP(O)(=S)O[C@H]2[C@H]1O (stereo partly specified)	activity change, negative = cytotoxicity	5.19% [at 11.6 µM] (inactive)
C/C=C(\C)C(=O)OC1C2C3(C)CCC(OC4CC(OC)C(OC5OC(C)C(O)C(OC)C5O)C(C)O4)CC3CCC23OC32CCC(C(C)=O)C2(C)C1OC(=O)/C(C)=C/C (stereo unspecified)	activity change, negative = cytotoxicity	-0.14% [at 11.6 µM] (inactive)

CO[C@H]1C[C@H](O[C@H]2CC[C@@]3(C)C(=CCC4C3CC[C@]3(C)[C@@H](C5=CC(=O)OC5)CC[C@]43O)C2)O[C@@H](C)[C@@H]1O[C@@H]1O[C@H](CO[C@@H]2O[C@H](CO)[C@@H](O)[C@H](O)[C@H]2O)[C@@H](O)[C@H](O)[C@H]1O (stereo partly specified) has a reported activity change, negative = cytotoxicity of -0.369% [at 11.6 µM] (inactive)

C/C=C(\C)C(=O)OC1CC2C(CC=C3CC(OC4CC(OC)C(OC5CC(OC)C(OC6CC(OC)C(OC7CC(OC)C(O)C(C)O7)C(C)O6)C(C)O5)C(C)O4)CCC32C)C2(O)CCC(C(C)=O)C12C (stereo unspecified) has a reported activity change, negative = cytotoxicity of -0.231% [at 11.6 µM] (inactive)

"CN(CC[C@H](N)CC(=O)N[C@H]1C=C[C@@H](n2ccc(N)nc2=O)O[C@@H]1C(=O)O)C(=N)N" has a reported activity change, negative = cytotoxicity of -2.42% [at 11.6 µM] (inactive)

CC(C)(NC(=O)[C@@H](N)Cc1ccc(O)cc1)C(=O)N[C@@H](Cc1cc2ccccc2[nH]1)C(=O)N[C@@H](Cc1ccccc1)C(=O)O (H-Y[Aib][Ala(indol-2-yl)]F-OH) has a reported activity change, negative = cytotoxicity of 0.783% [at 11.6 µM] (inactive)
